# pIC50 values compiled below
# Test System: CDK4/cyclin D3 (Homo sapiens, UniProt P11802)
# Construct: purchased Carna Biosciences, Inc. QS S Assist CDK4/Cyclin D3_FP Kit
# Sequence (P11802 whole entry): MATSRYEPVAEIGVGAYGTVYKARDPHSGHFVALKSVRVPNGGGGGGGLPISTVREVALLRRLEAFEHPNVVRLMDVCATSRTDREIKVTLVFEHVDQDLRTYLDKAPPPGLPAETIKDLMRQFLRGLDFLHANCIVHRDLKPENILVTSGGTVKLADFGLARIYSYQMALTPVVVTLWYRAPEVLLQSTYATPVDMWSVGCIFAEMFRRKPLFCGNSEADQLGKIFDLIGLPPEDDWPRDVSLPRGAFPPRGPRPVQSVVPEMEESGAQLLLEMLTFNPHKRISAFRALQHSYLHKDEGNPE
# Sequence (P30281 whole entry partner): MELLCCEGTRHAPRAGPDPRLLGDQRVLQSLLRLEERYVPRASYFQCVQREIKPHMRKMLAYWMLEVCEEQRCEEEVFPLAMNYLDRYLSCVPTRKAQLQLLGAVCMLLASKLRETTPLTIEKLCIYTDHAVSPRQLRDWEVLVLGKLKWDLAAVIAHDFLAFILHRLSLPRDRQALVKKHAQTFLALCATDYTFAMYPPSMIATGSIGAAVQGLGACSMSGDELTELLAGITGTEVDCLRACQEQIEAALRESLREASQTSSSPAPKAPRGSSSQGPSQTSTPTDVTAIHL
# Protocol Text: Human CDK4/cyclin D3 inhibitory activity (QS S Assist CDK4/Cyclin D3_FP Kit, IMAP fluorescence polarization)
# Assay type: biochemical
# Experimental Setup: Human CDK4/cyclin D3 inhibitory activity; read-out: CDK4 Activity symbol
pIC50: −log10 of the molar value.

Some solved entries appear below for comparison.
C[C@@H](O)c1cc2cnc(Nc3ccc(N4CCNCC4)nn3)nc2c(N[C@H]2CCCOC2)n1 :: > 8.00
CN(C)CCOc1ccc(Nc2ncc3cc(C(F)F)nc(NC4CCCOC4)c3n2)nc1 (stereo not shown) :: > 8.00
CC(C)Nc1nc([C@@H](C)O)cc2cnc(Nc3ccc(N4CC5(CCN5)C4)nn3)nc12 :: > 8.00

// pIC50 value for C[C@@H](O)c1cc2cnc(Nc3ccc(CN4CCNCC4)cn3)nc2c(NC2CCCC2C(=O)O)n1 (stereo partly shown) : ≤ 7.00

// pIC50 value for CCNC(=O)NCc1ccc(Nc2ncc3cc(C(F)F)nc(NC(C)C)c3n2)nc1 : 7.00 to 8.00

// pIC50 value for CO[C@H](C)c1cc2cnc(Nc3ccc(OCC(F)CN(C)C)cn3)nc2c(NC(C)C)n1 (stereo partly shown) : > 8.00

// pIC50 value for COC(C)c1cc2cnc(Nc3ccc(CN4CCNCC4)cn3)nc2c(Nc2ccc(C#N)cc2)n1 (stereo not shown) : 7.00 to 8.00

// pIC50 value for CNC1CCN(c2ccc(Nc3ncc4cc(C(C)OC)nc(NC(C)C)c4n3)nn2)CC1 (stereo not shown) : > 8.00

----------
# Test System: CDK2/cyclin A2 (Homo sapiens)
# Construct: purchased Carna Biosciences, Inc. QS S Assist CDK2/Cyclin A2_FP Kit
# Protocol Text: Human CDK2/cyclin A2 inhibitory activity (QS S Assist CDK2/Cyclin A2_FP Kit, IMAP fluorescence polarization)
# Assay type: biochemical
# Experimental Setup: 50% inhibitory concentration against CDK2/cyclin A2, given as class symbol
# IC50 values compiled below

Some solved entries appear below for comparison.
CCCNc1nc([C@@H](C)O)cc2cnc(Nc3ccc(CN4CCN(C(C)CO)CC4)cn3)nc12 (single isomer, unassigned) [Compound 1207] :: ≥ 100 nM
CCCNc1nc([C@@H](C)O)cc2cnc(Nc3ccc(CN4CCC(CO)CC4)cn3)nc12 :: ≥ 100 nM
CC(C)Nc1nc([C@@H](C)O)cc2cnc(Nc3ccc(N4CCNC(C(F)(F)F)C4)nn3)nc12 (stereo partly drawn) :: ≥ 100 nM
C[C@@H](O)c1cc2cnc(Nc3ccc(N4CCNCC4=O)cn3)nc2c(NCC2CC2)n1 :: ≥ 100 nM
CCNc1nc([C@@H](C)O)cc2cnc(Nc3ccc(CN4CCN(CCCO)CC4)cn3)nc12 :: ≥ 100 nM

// IC50 value for CC(C)Nc1nc(C2CCOC2)cc2cnc(Nc3ccc(N4CCNCC4)nn3)nc12 (stereo not drawn) : ≥ 100 nM

// IC50 value for O=C(CO)N1CCc2nc(Nc3ncc4cc(C5CCOC5)nc(N[C@H]5CCCOC5)c4n3)ccc2C1 (stereo partly drawn) : ≥ 100 nM

// IC50 value for CO[C@H](C)c1cc2cnc(Nc3ccc(CN4CCNCC4)cn3)nc2c(NCCCF)n1 : ≥ 100 nM

The reported measurements were obtained from patent US10124004B2.
